STUDY TARGET: Nuclear receptor ROR-gamma (Mus musculus) (UniProt P51450)
Sequence (P51450 whole entry, looked up): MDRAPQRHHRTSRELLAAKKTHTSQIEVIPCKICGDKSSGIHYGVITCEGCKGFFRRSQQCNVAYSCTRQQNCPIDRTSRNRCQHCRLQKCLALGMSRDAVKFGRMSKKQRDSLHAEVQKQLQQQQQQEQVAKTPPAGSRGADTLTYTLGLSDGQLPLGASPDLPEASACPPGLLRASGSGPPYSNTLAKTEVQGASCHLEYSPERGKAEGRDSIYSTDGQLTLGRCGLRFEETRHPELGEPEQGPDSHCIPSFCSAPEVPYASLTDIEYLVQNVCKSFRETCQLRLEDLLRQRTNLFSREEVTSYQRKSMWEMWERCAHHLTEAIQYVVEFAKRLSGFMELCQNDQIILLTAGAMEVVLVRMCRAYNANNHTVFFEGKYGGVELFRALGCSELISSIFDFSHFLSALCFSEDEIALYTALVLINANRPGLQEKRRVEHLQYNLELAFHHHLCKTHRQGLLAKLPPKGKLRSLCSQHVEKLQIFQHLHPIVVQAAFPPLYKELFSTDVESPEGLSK
ASSAY NAME: qHTS for inhibitors of ROR gamma transcriptional activity; note: nearly all actives have a fitted effect of over 60% in size
EXPERIMENTAL CONTEXT: Drosophila S2 Gal4-RORgamma UAS-luciferase reporter, 20 h; series mostly up to 53.6 µM
Excerpt: NIH Molecular Libraries Probe Production Network [MLPCN] NIH Chemical Genomics Center [NCGC] […] Small molecule inhibitors of ROR gamma activity are detected by a decrease in luciferase reporter activity. […]
Screen size: about 310,000 compounds; about 17,000 (5.5%) were called active. Not shown: some 11% with an inconclusive outcome. Calls come from the whole dose curve; as a rule, active = well fitted inhibition curve with a large enough effect; inconclusive = small, poorly fitted or top-dose-only effect, or effect the other way; inactive = no such curve, though single readings can be large or run the other way. Shown is part of a subset that was picked to be rich in actives.
Your answer must be one of the following: yes (active), no (inactive)

Look over these answered cases.
CC(CC(=O)N1CCN(c2ccccc2)CC1)S(=O)(=O)c1ccc2c(c1)NC(=O)CS2 (stereo not given); no
CCn1c(SCC(=O)Nc2ccc3c(c2)OCCO3)nnc1C(C)C; no
Cc1c2cnn(CC(=O)NCc3ccccn3)c(=O)c2c(C)n1Cc1ccc(Cl)cc1; no
CCOc1ccc(/C=N/Nc2nncc(-c3ccccc3)n2)cc1OC; no
COc1ccc(CN2CC(C(=O)NCCc3ccc(Cl)cc3)CC2=O)cc1 (stereo not given); no
COc1ccc(-c2cc(C(=O)N3CCN(c4ccc(F)cc4)CC3)no2)cc1; no
COc1ccc(/C=C2\SC(=O)N(CCC(=O)NCCCn3ccnc3)C2=O)cc1; no
COC(=O)c1ccc(C(=O)OC)c(NC(=S)N2CCN(c3cc(Cl)ccc3C)CC2)c1; no
CC(=O)Nc1ccc(-c2csc(NC(=O)Nc3ccccc3)n2)cc1; no

Alright, here's another compound for you.
Problem: Recorded test call requested for O=[N+]([O-])/C=C/c1ccc2c(ccn2Cc2ccccc2)c1
Solution: yes

----------
STUDY TARGET: Nuclear receptor ROR-gamma (Mus musculus) (UniProt P51450)
ASSAY NAME: qHTS for inhibitors of ROR gamma transcriptional activity; note: nearly all actives have a fitted effect of over 60% in size
EXPERIMENTAL CONTEXT: Drosophila S2 Gal4-RORgamma UAS-luciferase reporter, 20 h; series mostly up to 53.6 µM
Hit rate of the full screen: of about 310,000 compounds, about 17,000 (5.5%) were called active. Another 11% or so got no clear call; they are omitted. The call rests on the fitted dose curve; in most records, active means well fitted inhibition curve with a large enough effect; inconclusive means small, poorly fitted or top-dose-only effect, or effect the other way; inactive means no such curve, though single readings can be large or run the other way. The list comes from a sample in which actives are over-represented; it also holds close analogues and randomly drawn compounds.
Your answer must be one of the following: Y for active, N for inactive

Look over these answered cases.
CCCOc1ccc(CNC(=O)C2CCN(c3nn4c(=O)cc(C)nc4s3)CC2)cc1; N
Cc1nn2c(NCCN(C)C)c3c(nc2c1-c1ccccc1)CCC3; Y
CCc1ccccc1NC(=O)NCCN1CCCCC1; N
COc1cccc(OCc2cc(C(=O)N3CCN(C(=O)c4ccco4)CC3)no2)c1; N

Problem: Recorded test call requested for COc1cc(/C=C/CO)cc(OC)c1O[C@@H]1O[C@H](CO)[C@@H](O)[C@H](O)[C@H]1O
Solution: N

----------
STUDY TARGET: Nuclear receptor ROR-gamma (Mus musculus) (UniProt P51450)
ASSAY NAME: qHTS for inhibitors of ROR gamma transcriptional activity; note: nearly all actives have a fitted effect of over 60% in size
EXPERIMENTAL CONTEXT: Drosophila S2 Gal4-RORgamma UAS-luciferase reporter, 20 h; series mostly up to 53.6 µM
Among all 310,000 compounds or so, about 17,000 (5.5%) were called active. Roughly 11% stayed inconclusive and do not appear here. Calls come from the whole dose curve; as a rule, active = well fitted inhibition curve with a large enough effect; inconclusive = small, poorly fitted or top-dose-only effect, or effect the other way; inactive = no such curve, though single readings can be large or run the other way. Shown is part of a subset that was picked to be rich in actives.
Your answer must be one of the following: active, inactive

Look over these answered cases.
COc1ccc2oc(C(=O)NCC(Cc3ccccc3)N(C)C)c(C)c2c1 (centres undefined); inactive
CCn1ccnc1CN1CCCC(C(=O)c2ccc3c4c(cccc24)CC3)C1 (centres undefined); active
COc1ccc(N(Cc2ccc(N(C)C)cc2)C(=O)c2ccc(S(C)(=O)=O)cc2)cc1; inactive
COC(=O)c1ccc(NC(=O)CSc2nnc(C3CC3)n2C)cc1; inactive
Cc1ncoc1C(=O)N1CCCC(C(=O)c2ccc3c4c(cccc24)CC3)C1 (centres undefined); inactive
Cc1cc(C)nc(N/N=C/c2ccncc2)n1; inactive
Cc1cccc(NC(=O)c2cccnc2Cl)n1; inactive
O=C(Cc1ccccc1F)NC1CCSc2ccccc21 (centres undefined); inactive

Problem: Recorded test call requested for COc1ccc(CCNC(=O)C2CCCN2C(=O)Nc2ccccc2)cc1OC (centres undefined)
Solution: inactive

Problem: Recorded test call requested for CCCc1cc(=O)[nH]c(SCC(=O)Nc2sc3c(c2C#N)CCCC3)n1
Solution: inactive

The reported measurements were obtained from PubChem BioAssay AID2551.
